Biological target: human CCR2 (Homo sapiens)
Sequence (P41597 1-360 isoform P41597-2): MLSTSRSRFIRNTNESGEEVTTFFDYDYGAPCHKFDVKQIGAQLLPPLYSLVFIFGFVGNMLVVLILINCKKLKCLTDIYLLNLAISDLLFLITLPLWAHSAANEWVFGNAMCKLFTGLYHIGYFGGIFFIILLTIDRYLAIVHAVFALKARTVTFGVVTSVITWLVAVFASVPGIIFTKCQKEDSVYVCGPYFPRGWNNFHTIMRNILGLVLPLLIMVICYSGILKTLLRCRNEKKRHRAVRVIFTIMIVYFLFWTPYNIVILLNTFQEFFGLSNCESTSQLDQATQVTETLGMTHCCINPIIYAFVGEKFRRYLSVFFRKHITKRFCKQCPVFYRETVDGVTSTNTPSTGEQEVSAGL
Assay: Functional Ca2+ release test (B-1)
Details: Chem-1 cell line transfected with human CCR2; 50% inhibition of the MCP-1 effect, MCP-1 at EC50 (about 5 nM); in some cases means of several determinations
attribute-measured: pIC50
Value format note: pIC50 is -log10 of concentration (mol/L); just state the number.

The examples below pair each entry with its known result.
[
  {
    "compound": "Cc1cnc(-c2nc(C(F)(F)F)c(Oc3ccc(Cl)c(C(F)(F)F)c3)c(=O)[nH]2)[nH]1 [Example 242]",
    "pIC50": 8.74
  },
  {
    "compound": "Cn1cnc(-c2nc(C(F)(F)F)c(Oc3ccc(Cl)c(C(F)(F)F)c3)c(=O)[nH]2)c1 [Example 59]",
    "pIC50": 9.22
  },
  {
    "compound": "O=c1[nH]c(-c2cc[nH]n2)nc(C(F)(F)F)c1Oc1ccc(Cl)c(Cl)c1 [Example 49]",
    "pIC50": 9.22
  },
  {
    "compound": "O=c1[nH]c(-c2ncccc2Cl)nc(C(F)(F)F)c1Cc1ccc(Cl)cc1 [Example 211]",
    "pIC50": 8.82
  }
]

Query string: # pIC50 lookup, item COc1csnc1-c1nc(C(F)(F)F)c(Oc2ccc(Cl)c(C(F)(F)F)c2)c(=O)[nH]1 [Example 238]
Result string: 9.05

----------
Target: murine CCR2 (Mus musculus, UniProt P51683)
Construct: host or cells: U2OS β-arrestin cell line
Sequence (P51683 whole entry): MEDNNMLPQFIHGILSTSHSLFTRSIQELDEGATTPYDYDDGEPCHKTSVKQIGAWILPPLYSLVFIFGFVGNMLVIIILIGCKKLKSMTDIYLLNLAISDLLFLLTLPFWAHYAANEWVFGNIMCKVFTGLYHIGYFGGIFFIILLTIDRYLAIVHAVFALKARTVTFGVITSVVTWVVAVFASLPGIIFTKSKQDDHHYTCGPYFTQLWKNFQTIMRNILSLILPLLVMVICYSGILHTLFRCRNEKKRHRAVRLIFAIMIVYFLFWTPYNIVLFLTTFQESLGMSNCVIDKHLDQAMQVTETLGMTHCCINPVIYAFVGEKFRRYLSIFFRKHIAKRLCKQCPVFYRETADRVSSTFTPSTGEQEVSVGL
Assay: Functional β-arrestin recruiting test with murine MCP-1 (B-2b)
Assay type: cell-based
Details: U2OS β-arrestin cell line transfected with murine CCR2; agonist murine MCP-1; in some cases means of several determinations
Let's look at some molecules and their measured pIC50.
Value format note: pIC50 is -log10 of concentration (mol/L); just state the number.

[
  {
    "molecule": "Cc1cc(-c2nc(C(F)(F)F)c(Oc3ccc(Cl)c(Cl)c3)c(=O)[nH]2)no1 [Example 231]",
    "attribute-measured": "pIC50",
    "test-result": 6.60
  }
]

Query string: # pIC50 lookup, item CSc1cccnc1-c1nc(C(F)(F)F)c(Oc2ccc(Cl)c(Cl)c2)c(=O)[nH]1 [Example 115]
Result string: 8.12

Query string: Further, for O=c1[nH]c(-c2ncccc2Cl)nc(C(F)(F)F)c1Oc1ccc(Cl)c(F)c1 [Example 11] ?
Result string: 6.71

Query string: Further, for COc1cccnc1-c1nc(C(F)(F)F)c(Oc2ccc(Cl)c(Cl)c2)c(=O)[nH]1 [Example 24] ?
Result string: 7.27

Query string: Further, for Cc1cnc(-c2nc(C(F)(F)F)c(Oc3ccc(Cl)c(C(F)(F)F)c3)c(=O)[nH]2)[nH]1 [Example 242] ?
Result string: 6.82

Query string: Further, for O=c1[nH]c(-c2ncccc2F)nc(C(F)(F)F)c1Cc1ccc(Cl)c(Cl)c1 [Example 17] ?
Result string: 6.72

Query string: Further, for O=c1[nH]c(-c2ncccc2OC(F)(F)F)nc(C(F)(F)F)c1Oc1ccc(Cl)c(C(F)(F)F)c1 [Example 204] ?
Result string: 6.55
